Ref: the supplement of paper PMC9262897

Below, each entry is listed alongside its reported growth.
# System: E. coli TESEC Mtb Alr
# Assay comment: growth (OD600 after 10 h); higher = more growth (less inhibition)
# Assay conditions: arabinose 1000 nM; compound 0.1 mM; raw OD600 reference: median of DMSO wells 0.294, cell-free background 0.041
Counter-ions that a name gives are not always drawn.
Quantity: growth

INSERT INTO results (compound, quantity, val) VALUES
  ('Cc1ccnc2c1NC(=O)c1cccnc1N2C1CC1', 'growth', 0.29),
  ('CCN(CC)CC(=O)Nc1c(C)cccc1C [Lidocaine hydrochloride]', 'growth', 0.256),
  ('O=c1[nH]c(=O)n(C2CCCO2)cc1F (stereo not drawn)', 'growth', 0.284);
